Sourced from ChEMBL document CHEMBL4689842

- Tested on: Fibroblast
- method: Multiplex assay against human fibroblast
- Assay type: toxicity, cell-based
- particulars: 24 h, 10 µM, compound concentration 10 uM, replicate 2
// assign criterion met if Population Fragmented Nuclei (%) falls strictly below 40%, else criterion not met (ties count as criterion not met)

Here are 7 molecules together with their reported answers.
>>> class_label("C=CC(=O)Nc1cccc(C(=O)Nc2ccc(Nc3cc(-c4[nH]c(SC)nc4C)ccn3)cc2)c1")
"criterion met"
>>> class_label("Cc1nc(Nc2n[nH]c3c2CN(C(=O)N[C@H](CN(C)C)c2ccccc2)C3(C)C)c2sccc2n1 [PF-03758309]")
"criterion not met"
>>> class_label("Cc1nc(-c2cn3c(n2)-c2ccc(-c4cnn(C(C)(C)C(N)=O)c4)cc2OCC3)n(C(C)C)n1 [TASELISIB]")
"criterion met"
>>> class_label("O=C1NCN(c2ccccc2)C12CCN(CCCOc1ccc(F)cc1)CC2 [SPIRAMIDE]")
"criterion met"
>>> class_label("CN1CCCC(n2nc(Cc3ccc(Cl)cc3)c3ccccc3c2=O)CC1.Cl (stereo not drawn) [AZELASTINE HYDROCHLORIDE]")
"criterion met"
>>> class_label("C[C@@H](NCCCc1cccc(C(F)(F)F)c1)c1cccc2ccccc12.Cl [CINACALCET HYDROCHLORIDE]")
"criterion met"
>>> class_label("CCN(CC)CCCCNc1ncc2cc(-c3cc(OC)cc(OC)c3)c(NC(=O)NC(C)(C)C)nc2n1 [PD-173074]")
"criterion not met"

Lab note: next molecule to report on.
stdin: Quick check: Population Fragmented Nuclei (%) of Cc1c(-c2ccc(O)cc2)n(Cc2ccc(OCCN3CCCCCC3)cc2)c2ccc(O)cc12 [BAZEDOXIFENE] under 40%?
stdout: criterion met
